Readings of binding signal for the listed sequences
Target: p50p50 homodimer (Homo sapiens, UniProt P19838 7-356)
Sequence (P19838 7-356): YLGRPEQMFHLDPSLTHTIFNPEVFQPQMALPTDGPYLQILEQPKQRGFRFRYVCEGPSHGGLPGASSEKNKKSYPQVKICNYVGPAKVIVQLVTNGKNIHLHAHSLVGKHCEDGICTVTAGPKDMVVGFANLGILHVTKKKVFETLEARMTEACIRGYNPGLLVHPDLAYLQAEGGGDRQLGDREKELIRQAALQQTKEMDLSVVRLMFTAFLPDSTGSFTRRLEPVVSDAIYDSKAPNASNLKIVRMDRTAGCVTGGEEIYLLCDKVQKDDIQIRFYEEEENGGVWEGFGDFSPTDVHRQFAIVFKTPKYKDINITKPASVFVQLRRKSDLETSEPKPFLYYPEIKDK
Assay: protein binding microarray; high values mean tight binding
Conditions: dsDNA, one strand shown
Write it as a number; the unit z-score goes unstated.

Solved entries:
[
  {
    "input sequence": "GAAGGTGCCCT",
    "measured property": "binding signal",
    "endpoint value": -0.946
  },
  {
    "input sequence": "CAGGTCATCCT",
    "measured property": "binding signal",
    "endpoint value": -1.84
  },
  {
    "input sequence": "CAATGTGTCCT",
    "measured property": "binding signal",
    "endpoint value": -1.04
  }
]

Supply measured binding signal of AAAGTTACCCT in your reply. 0.663

Supply measured binding signal of CAGGTCGCCCC in your reply. -0.385

Supply measured binding signal of GAGTAGTCCCT in your reply. 1.35

Supply measured binding signal of GGATACCCCCC in your reply. 1.23

Supply measured binding signal of CAAAAACCCCT in your reply. 1.47

Supply measured binding signal of AGGGGACTCCC in your reply. 0.939

Supply measured binding signal of CGAGGTGCCCT in your reply. -1.52

Supply measured binding signal of CAGGGTCCCCC in your reply. 0.876

Supply measured binding signal of GAGTTGGCCCT in your reply. -1.24

Supply measured binding signal of CGGGGACCCCT in your reply. 0.724

---

Target: C-Rel subunit;p52 subunit (Homo sapiens;Homo sapiens, UniProt Q04864;Q00653 1-285;4-332)
Sequence 1: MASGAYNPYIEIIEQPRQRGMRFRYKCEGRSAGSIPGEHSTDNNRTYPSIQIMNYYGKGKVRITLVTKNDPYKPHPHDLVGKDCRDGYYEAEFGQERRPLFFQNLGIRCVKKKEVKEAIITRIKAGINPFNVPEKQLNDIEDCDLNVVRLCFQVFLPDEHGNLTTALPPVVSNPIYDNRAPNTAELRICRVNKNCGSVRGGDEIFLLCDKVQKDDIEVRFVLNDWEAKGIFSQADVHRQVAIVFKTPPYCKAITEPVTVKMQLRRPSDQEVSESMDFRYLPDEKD
Sequence 2: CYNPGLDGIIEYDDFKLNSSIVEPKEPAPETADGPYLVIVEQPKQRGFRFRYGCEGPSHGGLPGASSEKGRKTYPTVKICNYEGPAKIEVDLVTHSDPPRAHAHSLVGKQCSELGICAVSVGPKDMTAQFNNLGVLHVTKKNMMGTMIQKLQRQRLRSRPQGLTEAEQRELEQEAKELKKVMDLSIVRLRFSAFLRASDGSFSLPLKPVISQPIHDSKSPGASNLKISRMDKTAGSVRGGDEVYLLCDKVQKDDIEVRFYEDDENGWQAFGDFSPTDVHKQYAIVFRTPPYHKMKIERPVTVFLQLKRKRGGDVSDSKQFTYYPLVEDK
Assay: protein binding microarray; high values mean tight binding
Details: dsDNA, one strand shown
measured property: binding signal (z-score)
Write it as a number; the unit z-score goes unstated.

Solved entries:
[
  {
    "input sequence": "AGAGGTTCCCC",
    "binding signal / z-score": 1.14
  },
  {
    "input sequence": "CGAGTTATCCT",
    "binding signal / z-score": -0.871
  },
  {
    "input sequence": "CAAAGCCTCCC",
    "binding signal / z-score": -0.839
  },
  {
    "input sequence": "CAGTTTATCCC",
    "binding signal / z-score": -0.0511
  },
  {
    "input sequence": "AAGGTAGCCCC",
    "binding signal / z-score": 0.217
  }
]

// switching to the query sequence
Supply measured binding signal of AGGAGCCTCCC in your reply. -0.719
